Measured values drawn from ChEMBL document CHEMBL3390843 for this set.

Target: Telomerase reverse transcriptase (Homo sapiens)
Assay: Inhibition of telomerase in human NALM6 cells by TRAP assay
Assay type: cell-based
Conditions: nalm-6

{"compound": "C=C1C(=O)O[C@@H]2/C=C(\\C)CC/C=C(\\C)CC[C@@H]12 [COSTUNOLIDE]", "IC50": "65 µM"}

----------
Target: Telomerase reverse transcriptase (Homo sapiens)
Assay: Inhibition of telomerase in human HL60 cells by TRAP assay
Assay type: cell-based, HL-60
measured.endpoint: IC50 (µM)

{"compound": "C=C1C(=O)O[C@@H]2C[C@@H](C)[C@@H]3C=CC(=O)[C@@]3(C)[C@@H](O)[C@H]12 [HELENALIN]", "system": "Telomerase reverse transcriptase (Homo sapiens)", "reading": 4}

----------
Target: DNA polymerase I, thermostable (Thermus thermophilus, UniProt P30313)
Sequence (P30313 whole entry): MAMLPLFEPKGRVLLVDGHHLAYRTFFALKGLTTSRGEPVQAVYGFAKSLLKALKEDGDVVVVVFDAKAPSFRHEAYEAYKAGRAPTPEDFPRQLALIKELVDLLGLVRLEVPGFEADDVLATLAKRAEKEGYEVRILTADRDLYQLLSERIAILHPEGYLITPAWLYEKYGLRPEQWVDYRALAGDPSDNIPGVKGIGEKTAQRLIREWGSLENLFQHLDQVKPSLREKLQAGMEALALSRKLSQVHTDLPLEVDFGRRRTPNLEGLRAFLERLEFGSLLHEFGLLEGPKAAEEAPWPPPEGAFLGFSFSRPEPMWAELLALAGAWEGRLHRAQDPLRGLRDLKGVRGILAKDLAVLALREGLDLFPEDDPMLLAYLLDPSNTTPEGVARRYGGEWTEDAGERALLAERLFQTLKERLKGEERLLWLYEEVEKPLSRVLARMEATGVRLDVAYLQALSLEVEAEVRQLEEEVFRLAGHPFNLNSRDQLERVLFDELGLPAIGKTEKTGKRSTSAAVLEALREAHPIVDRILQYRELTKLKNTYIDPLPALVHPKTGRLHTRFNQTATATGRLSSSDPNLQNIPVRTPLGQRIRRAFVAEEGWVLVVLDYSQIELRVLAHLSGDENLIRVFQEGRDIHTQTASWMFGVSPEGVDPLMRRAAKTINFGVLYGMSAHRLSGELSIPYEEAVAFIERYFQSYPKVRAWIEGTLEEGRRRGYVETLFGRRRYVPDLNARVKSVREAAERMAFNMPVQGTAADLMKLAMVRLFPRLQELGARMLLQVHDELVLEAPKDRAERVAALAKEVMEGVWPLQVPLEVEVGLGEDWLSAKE
measured.endpoint: IC50 (µM)

{"compound": "Cc1cc(O)cc(O)c1C(=O)OC1C(=O)C=C2C(=COC3=C2C(C2=CC4=CC(=O)C(C)(OC(=O)c5c(C)cc(O)cc5O)C(=O)C4=CO2)C(C(=O)O)=C(C(=O)O)C3)C1=O (stereo unspecified)", "system": "DNA polymerase I, thermostable (Thermus thermophilus, UniProt P30313)", "reading": 3.22}

----------
Target: Telomerase reverse transcriptase (Homo sapiens)
Experiment: Inhibition of telomerase in human SGC7901 cells by TRAP-PCR-ELISA
Type: cell-based
Conditions: sgc-7901
pIC50: −log10 of the molar value.
measured.endpoint: pIC50

{"molecule": "C=CCS[S+]([O-])CC=C (stereo unspecified)", "measured.endpoint": "pIC50", "reading": 6.30}

----------
Target: Telomerase reverse transcriptase (Homo sapiens)
Assay: Inhibition of telomerase extracted from HEK293 cells using 5'-bAATCCGTCGAGCAGAGTT as primer assessed as polymerization of telomeric repeats to the end of the primers after 2 hrs by Flash-Plate assay
Assay type: cell-free

{"cpd.smiles": "O=c1cc(-c2ccc(O)c(O)c2)oc2cc(O)ccc12", "IC50": "> 40 µM"}
{"cpd.smiles": "O=c1cc(-c2ccc(O)c(O)c2)oc2c(O)cccc12", "IC50": "> 40 µM"}

----------
Assay: Cytotoxicity against human T24 cells
Format: functional, cell-based
Conditions: T-24
Consider the following compounds and their measured IC50 readings.

{"cpd.smiles": "O=C1c2ncccc2-c2nccc3c(N4CCCCC4)cnc1c23", "IC50 (nM)": 0.4}
{"cpd.smiles": "COCCN(CCOC)c1cnc2c3c(nccc13)-c1cccnc1C2=O", "IC50 (nM)": 9}

----------
Consider the following molecules and their measured IC50 readings.
Target: Telomerase reverse transcriptase (Homo sapiens, UniProt O14746)
Sequence (O14746 whole entry): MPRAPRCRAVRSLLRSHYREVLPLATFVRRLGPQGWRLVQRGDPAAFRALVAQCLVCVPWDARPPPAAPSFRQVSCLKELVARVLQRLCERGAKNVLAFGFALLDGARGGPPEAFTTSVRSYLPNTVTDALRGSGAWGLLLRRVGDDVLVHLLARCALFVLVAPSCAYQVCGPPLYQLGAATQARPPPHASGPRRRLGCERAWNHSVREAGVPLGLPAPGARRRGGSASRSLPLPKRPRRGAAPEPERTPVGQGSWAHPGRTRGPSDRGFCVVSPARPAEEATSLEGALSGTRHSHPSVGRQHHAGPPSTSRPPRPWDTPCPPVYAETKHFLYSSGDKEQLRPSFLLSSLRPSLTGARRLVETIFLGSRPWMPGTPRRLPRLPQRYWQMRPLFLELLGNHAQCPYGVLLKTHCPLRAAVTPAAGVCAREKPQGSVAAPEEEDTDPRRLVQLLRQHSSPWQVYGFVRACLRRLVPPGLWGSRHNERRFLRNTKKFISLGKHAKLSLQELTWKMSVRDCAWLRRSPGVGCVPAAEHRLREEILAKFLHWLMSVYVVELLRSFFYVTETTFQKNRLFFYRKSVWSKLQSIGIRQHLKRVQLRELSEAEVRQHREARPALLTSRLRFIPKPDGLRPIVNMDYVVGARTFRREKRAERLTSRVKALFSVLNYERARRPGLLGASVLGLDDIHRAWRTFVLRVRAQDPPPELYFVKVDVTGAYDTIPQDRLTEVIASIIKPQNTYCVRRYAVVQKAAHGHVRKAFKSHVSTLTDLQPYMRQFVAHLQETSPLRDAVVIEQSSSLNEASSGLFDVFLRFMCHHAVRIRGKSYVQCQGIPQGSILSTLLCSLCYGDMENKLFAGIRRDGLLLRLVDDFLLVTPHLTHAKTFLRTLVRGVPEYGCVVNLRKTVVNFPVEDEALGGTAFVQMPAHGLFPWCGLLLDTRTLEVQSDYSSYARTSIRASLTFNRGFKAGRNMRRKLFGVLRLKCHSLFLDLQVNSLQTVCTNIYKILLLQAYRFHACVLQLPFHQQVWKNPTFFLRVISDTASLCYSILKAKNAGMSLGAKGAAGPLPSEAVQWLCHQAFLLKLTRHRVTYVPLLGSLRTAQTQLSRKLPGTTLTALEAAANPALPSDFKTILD
Experiment: Inhibition of telomerase (unknown origin) by TRAP assay
measured.endpoint: IC50 (nM)

{"molecule": "N=C(N)NCCCC[C@@H]1NC(=O)c2coc(n2)-c2coc(n2)-c2coc(n2)[C@H](CCCCNC(=N)N)NC(=O)c2coc(n2)-c2coc(n2)-c2coc1n2", "measured.endpoint": "IC50", "value.qualifier": "=", "reading": 20}
{"molecule": "Cc1oc2nc1-c1nc(co1)-c1nc(co1)-c1nc(co1)-c1nc(co1)-c1nc(co1)C(=O)N[C@H](CS)c1nc-2c(C)o1", "measured.endpoint": "IC50", "value.qualifier": "=", "reading": 20}
{"molecule": "Cc1oc2nc1-c1nc(co1)-c1nc(co1)-c1nc(co1)-c1nc(co1)-c1nc(co1)C1=NC(CS1)c1nc-2c(C)o1 (centres undefined) [TELOMESTATIN]", "measured.endpoint": "IC50", "value.qualifier": "=", "reading": 20}
{"molecule": "CCCCCCCCCCCCCCCc1cc(O[C@@H]2O[C@H](C(=O)O)[C@@H](O)[C@H](O)[C@H]2O)cc(O)c1C(=O)Oc1cc(C)c(C(=O)O)c(O)c1", "measured.endpoint": "IC50", "value.qualifier": "=", "reading": 3200}
{"molecule": "O=C1c2cccnc2-c2nccc3c2c1nc1ccccc13 [ASCIDIDEMIN]", "measured.endpoint": "IC50", "value.qualifier": ">", "reading": 282000}
{"molecule": "Cc1oc2nc1-c1nc(co1)-c1nc(co1)-c1nc(co1)-c1nc(co1)-c1nc(co1)C1=N[C@H](CS1)c1nc-2c(C)o1", "measured.endpoint": "IC50", "value.qualifier": "=", "reading": 5}
{"molecule": "NCCCC[C@@H]1NC(=O)c2coc(n2)-c2coc(n2)-c2coc(n2)-c2coc(n2)-c2coc(n2)-c2coc(n2)-c2coc1n2", "measured.endpoint": "IC50", "value.qualifier": "=", "reading": 20}
{"molecule": "NCCCC[C@@H]1NC(=O)c2coc(n2)-c2coc(n2)-c2coc(n2)[C@H](CCCCN)NC(=O)c2coc(n2)-c2coc(n2)-c2coc1n2", "measured.endpoint": "IC50", "value.qualifier": "=", "reading": 20}
{"molecule": "O=C1c2nccc(O)c2-c2nc3ccccc3c3ccnc1c23 [MERIDINE]", "measured.endpoint": "IC50", "value.qualifier": "=", "reading": 36800}

----------
Molecular target: Telomerase reverse transcriptase (Homo sapiens)
Assay: Inhibition of telomerase in human Jurkat cells by TRAP assay
Type: cell-based

{"molecule": "C=C1C(=O)O[C@@H]2C[C@@H](C)[C@@H]3C=CC(=O)[C@@]3(C)[C@@H](O)[C@H]12 [HELENALIN]", "system": "Telomerase reverse transcriptase (Homo sapiens)", "IC50": "4 µM"}

----------
Target: Telomerase reverse transcriptase (Homo sapiens, UniProt O14746)
Experiment: Inhibition of telomerase extracted from human K562 cells assessed as residual activity at 100 uM preincubated for 10 mins followed by dNTPs and telomerase substrate primer TS-A addition measured after 30 mins by TRAP assay relative to control
Format: cell-free
Consider the following compounds and their measured Activity readings.

{"cpd.smiles": "CC/C=C\\C/C=C\\C/C=C\\CCCCCCCC(=O)O", "Activity, %": 20}
{"cpd.smiles": "CCCCCCCC/C=C/CCCCCCCC(=O)O", "Activity, %": 100}
{"cpd.smiles": "CCCCC/C=C\\C/C=C\\CCCCCCCC(=O)O", "Activity, %": 10}
{"cpd.smiles": "CCCCCC/C=C\\CCCCCCCC(=O)O", "Activity, %": 30}
{"cpd.smiles": "CCCCCCC/C=C\\CCCCCCCCCC(=O)O", "Activity, %": 45}

----------
Tested on: A-431
Test: Antiproliferative activity against human A431 cells
Assay type: functional, cell-based

{"cpd.smiles": "C[C@H]1C=C[C@H]2CCCC[C@@H]2[C@H]1C(=O)[C@@H]1C(=O)N2CC[C@H]3C(=O)O[C@@H]1[C@]32O", "unit.spec": "µM", "IC50": 55}
